src = patent US8034811B2

The following compounds are shown together with reported pIC50 values.
# targetOrTestSystem: human intracellular domain of KDR (VEGF Receptor-2) (Homo sapiens, UniProt P35968)
# Construct: A fusion protein containing the intracellular domain (amino acids 793 to 1357) of the KDR and N-terminally tagged to GST; E. coli BL21 (pGEX-4T-1) for GST-PLCγ
# Sequence (P35968 794-1356 limits assumed): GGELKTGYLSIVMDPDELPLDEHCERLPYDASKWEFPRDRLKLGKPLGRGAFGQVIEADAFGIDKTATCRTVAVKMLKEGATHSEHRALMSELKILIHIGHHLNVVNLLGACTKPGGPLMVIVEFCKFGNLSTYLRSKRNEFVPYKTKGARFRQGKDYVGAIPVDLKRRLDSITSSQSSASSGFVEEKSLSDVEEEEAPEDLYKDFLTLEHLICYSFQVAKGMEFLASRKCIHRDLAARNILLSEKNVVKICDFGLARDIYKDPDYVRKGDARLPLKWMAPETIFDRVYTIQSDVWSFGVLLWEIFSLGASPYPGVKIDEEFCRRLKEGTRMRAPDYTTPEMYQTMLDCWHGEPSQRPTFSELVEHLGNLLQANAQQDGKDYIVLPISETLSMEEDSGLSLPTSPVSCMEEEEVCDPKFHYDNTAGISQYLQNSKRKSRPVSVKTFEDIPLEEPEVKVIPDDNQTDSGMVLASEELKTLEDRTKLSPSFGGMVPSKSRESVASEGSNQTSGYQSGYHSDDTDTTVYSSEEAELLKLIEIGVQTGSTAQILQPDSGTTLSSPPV
# assayText: In vitro KDR kinase assay
# conditionNotes: IC50 as molar concentration; GST-KDR-cyt, substrate phospholipase Cγ, ATP 100 μM, 30 min room temperature, time-resolved fluorometry
Just the number, please; pIC50 means minus log10 of the concentration in mol/L.

Supply measured pIC50 of O=C(NOCC1CCCCCC1)c1ccccc1NCc1ccncc1 in your reply.
7.30

Give me measured pIC50, please, for this compound: CC(C)CCONC(=O)c1ccccc1NCc1ccncc1
7.80

Please indicate pIC50 recorded for COc1cccc(CONC(=O)c2ccccc2NCc2ccncc2)c1
7.50

---
Give the value of pIC50 reported for the following: N#Cc1ccccc1CONC(=O)c1ccccc1NCc1ccncc1
7.20

Return pIC50 (reported value) for this compound: N#Cc1ccc(CONC(=O)c2cccnc2NCc2ccncc2)c(F)c1
7.10

Consider the compound O=C(NOCCC1CCCC1)c1ccccc1NCc1ccncc1 . State its measured pIC50.
8.10

Recall and state the measured pIC50 for O=C(NOCc1csc(-c2ccccc2)n1)c1ccccc1NCc1ccncc1 .
7.00

Recall and state the measured pIC50 for COc1ccccc1CONC(=O)c1ccccc1NCc1ccncc1 .
7.30

Give reported pIC50 value for N#Cc1ccc(CONC(=O)c2ccccc2NCc2ccncc2)c(I)c1
7.40

State, in one line, measured pIC50 of O=C(NOCC1CCCC1)c1ccccc1NCc1ccnc2ccccc12
8.00

* * *

Quick list: pIC50 per entry.
# targetOrTestSystem: human intracellular domain of KDR (VEGF Receptor-2) (Homo sapiens)
# Construct: A fusion protein containing the intracellular domain (amino acids 793 to 1357) of the KDR and N-terminally tagged to GST; E. coli BL21 (pGEX-4T-1) for GST-PLCγ
# assayText: In vitro KDR kinase assay
# conditionNotes: IC50 as molar concentration; GST-KDR-cyt, substrate phospholipase Cγ, ATP 100 μM, 30 min room temperature, time-resolved fluorometry
Just so you know, pIC50 here is -log10 of the concentration in molar units; reply with that number alone.

Annotate the compound O=C(NOCc1ccc(Br)cc1)c1ccccc1NCc1ccncc1 [Compound 44] with its measured pIC50.
7.30

Using known records, supply pIC50 for O=C(NOCc1ccccc1-c1cccs1)c1ccccc1NCc1ccncc1 [Compound 98]
7.40

For the compound N#Cc1ccc(CONC(=O)c2ccccc2NCc2ccnc(NC(=O)C3CC3)c2)cc1 [compound 226] , give its measured pIC50 value.
8.20

Tell me pIC50 reported for O=C(NOCc1ccc(F)cc1)c1ccccc1NCc1ccnc(Br)c1 [Compound 204]
7.20

Supply measured pIC50 of Nc1cc(CNc2ccccc2C(=O)NOCC2CCCC2)ccn1 [compound 229] in your reply.
8.10

Others:
Using the record for C=C(C)C(=O)OCCNC(=O)Nc1cc(CNc2ccccc2C(=O)NOCC2CCCC2)ccn1 [compound 219] , state its measured pIC50.
7.40

Fill in pIC50 for record O=C(NOCc1ccc([N+](=O)[O-])cc1)c1ccccc1NCc1ccncc1 [Compound 2]
6.90

Please list pIC50 recorded for the compound CC(Nc1ccccc1C(=O)NOCc1ccc(C#N)cc1)c1ccncc1 (stereo not drawn) [compound 244]
7.20

Recall and state the measured pIC50 for COc1ccc(CNc2ncccc2C(=O)NOCc2ccc(OC)cc2)cc1 [Compound 35] .
6.00

* * *

# targetOrTestSystem: human intracellular domain of KDR (VEGF Receptor-2) (Homo sapiens)
# Construct: A fusion protein containing the intracellular domain (amino acids 793 to 1357) of the KDR and N-terminally tagged to GST; E. coli BL21 (pGEX-4T-1) for GST-PLCγ
# assayText: In vitro KDR kinase assay
# conditionNotes: IC50 as molar concentration; GST-KDR-cyt, substrate phospholipase Cγ, ATP 100 μM, 30 min room temperature, time-resolved fluorometry
Consider the following compounds and their measured IC50 readings.
Enter your answer as a number in nM; do not include the unit.

Write down measured IC50 (human intracellular domain of KDR (VEGF Receptor-2) (Homo sapiens)) for this compound. O=C(NOCc1ccccc1[N+](=O)[O-])c1ccccc1NCc1ccncc1 [Compound 3]
100

Look up and report IC50, with human intracellular domain of KDR (VEGF Receptor-2) (Homo sapiens) as system, for O=C(NCCO)Nc1cc(CNc2ccccc2C(=O)NOCC2CCCC2)ccn1 [compound 221]
7.94

Identify measured IC50 obtained with human intracellular domain of KDR (VEGF Receptor-2) (Homo sapiens) for O=C(NOCCC1CC1)c1ccccc1NCc1ccncc1 [Compound 125] .
39.8

Others:
Recall the reported IC50 of CCCc1cc(CONC(=O)c2ccccc2NCc2ccncc2)on1 [Compound 110] on human intracellular domain of KDR (VEGF Receptor-2) (Homo sapiens) and write it down.
79.4

# return IC50 of COc1cc(C#N)ccc1CONC(=O)c1ccccc1NCc1ccncc1 [Compound 79] (system: human intracellular domain of KDR (VEGF Receptor-2) (Homo sapiens))
39.8

Look up and report IC50, with human intracellular domain of KDR (VEGF Receptor-2) (Homo sapiens) as system, for O=C(NOCc1ccc2c(c1)CCC2)c1ccccc1NCc1ccncc1 [Compound 73]
15.8

Quote human intracellular domain of KDR (VEGF Receptor-2) (Homo sapiens) IC50 for entry N#Cc1ccc(CONC(=O)c2ccccc2NCc2ccncc2)cc1Br [Compound 77] .
39.8

Jot down IC50 (human intracellular domain of KDR (VEGF Receptor-2) (Homo sapiens)) of CC(=O)OCC(=O)Nc1cc(CNc2ccccc2C(=O)NOCC2CCCC2)ccn1 [compound 223] .
31.6

* * *

The entries below come with measured pIC50 values attached.
# targetOrTestSystem: human intracellular domain of KDR (VEGF Receptor-2) (Homo sapiens, UniProt P35968)
# Construct: A fusion protein containing the intracellular domain (amino acids 793 to 1357) of the KDR and N-terminally tagged to GST; E. coli BL21 (pGEX-4T-1) for GST-PLCγ
# assayText: In vitro KDR kinase assay
# conditionNotes: IC50 as molar concentration; GST-KDR-cyt, substrate phospholipase Cγ, ATP 100 μM, 30 min room temperature, time-resolved fluorometry
Scale: negative log10 of molar concentration, which is what pIC50 denotes.

Examples from the recorded data:
// fetch pIC50 given entry O=C(NOCc1ccccc1Cl)c1ccccc1NCc1ccncc1
7.80

Quick one: give measured pIC50 for N#Cc1ccc(CONC(=O)c2ccccc2NCc2ccc(=O)[nH]c2)cc1
7.30

Retrieve pIC50 measured for CNC(=O)Nc1cc(CNc2ccccc2C(=O)NOCC2CCCC2)ccn1 and print it.
8.00

Next:
Identify measured pIC50 associated with CC(=O)OCC(=O)Nc1cc(CNc2ccccc2C(=O)NOCc2ccc(C#N)cc2)ccn1
8.20

// fetch pIC50 given entry O=C(NOCc1ccc(F)cc1)c1ccccc1NCc1ccncc1
7.60

* * *

Reported IC50 values follow for various compounds
# targetOrTestSystem: human intracellular domain of KDR (VEGF Receptor-2) (Homo sapiens)
# Construct: A fusion protein containing the intracellular domain (amino acids 793 to 1357) of the KDR and N-terminally tagged to GST; E. coli BL21 (pGEX-4T-1) for GST-PLCγ
# assayText: In vitro KDR kinase assay
# conditionNotes: IC50 as molar concentration; GST-KDR-cyt, substrate phospholipase Cγ, ATP 100 μM, 30 min room temperature, time-resolved fluorometry
Just the number please, in nM, no unit attached.

Answered cases to consult:
Using known records, supply IC50 for O=C(CC1NC(=O)NC1=O)Nc1cc(CNc2ccccc2C(=O)NOCC2CCCC2)ccn1 (stereo not drawn)
6.31

Quickly give me recorded IC50 for O=C(NOCC1CCCCO1)c1ccccc1NCc1ccncc1 (stereo not drawn)
39.8

Return reported IC50. Input compound: O=C(NOCc1ccccc1I)c1ccccc1NCc1ccncc1
31.6

Check the records and state IC50 for O=C(NOCC1CCCCC1)c1ccccc1NCc1ccncc1
39.8

Recall and state the measured IC50 for O=C(NOCc1ccccc1)c1ccccc1NCc1ccc2occc2c1 .
63.1

Tell me measured IC50 for COc1ccc(CNc2ccccc2C(=O)NOCc2ccccc2)cn1 please.
79.4

# return recorded IC50 for input O=C(NOCc1ccc(CO)cc1)c1ccccc1NCc1ccncc1
63.1

Query IC50 for Cc1ccc(F)cc1CONC(=O)c1ccccc1NCc1ccncc1
10

Attention now shifts to the item below.
Consider the compound O=C(NOCc1cccc2ccccc12)c1ccccc1NCc1ccncc1 and give its recorded IC50.
63.1

* * *

# targetOrTestSystem: human intracellular domain of KDR (VEGF Receptor-2) (Homo sapiens)
# Construct: A fusion protein containing the intracellular domain (amino acids 793 to 1357) of the KDR and N-terminally tagged to GST; E. coli BL21 (pGEX-4T-1) for GST-PLCγ
# assayText: In vitro KDR kinase assay
# conditionNotes: IC50 as molar concentration; GST-KDR-cyt, substrate phospholipase Cγ, ATP 100 μM, 30 min room temperature, time-resolved fluorometry
The reader will find reported pIC50 values listed item by item below.
A value of pIC50 is the negative decimal logarithm of a concentration given in moles per litre.

Completed entries (count: 10):
Tell me pIC50 reported for CC1(C)[C@H]2CC[C@@H](CONC(=O)c3ccccc3NCc3ccncc3)[C@@H]1C2
7.60

Return the recorded pIC50 value; entry: O=C(NOCc1cc(Cl)nc(Cl)c1)c1ccccc1NCc1ccncc1
7.20

Report pIC50 for N#Cc1ccc(CONC(=O)c2ccccc2NCc2ccnc(NC(=O)NCC(=O)O)c2)cc1
8.00

Please report the measured pIC50 for O=C(NOC[C@H]1CC[C@H](CO)CC1)c1ccccc1NCc1ccncc1
7.30

Quick one: give measured pIC50 for O=C(NOCc1ccccc1Br)c1ccccc1NCc1ccncc1
7.80

Given the molecule N#Cc1ccc(CONC(=O)c2ccccc2NCc2ccncc2)cc1 , write its reported pIC50.
7.90

Output measured pIC50 for this item: N#Cc1ccc(Br)c(CONC(=O)c2ccccc2NCc2ccncc2)c1
7.30

Please report the measured pIC50 for O=C(NOCc1ccccc1OC(F)(F)F)c1ccccc1NCc1ccncc1
7.20

Consider the molecule CC1CC=CCC1CONC(=O)c1ccccc1NCc1ccncc1 (centres unmarked) . State its measured pIC50.
8.00

Give pIC50 for O=C(NOCc1cc(Cl)ccc1Cl)c1ccccc1NCc1ccncc1
7.20

Others:
Report pIC50 for O=C(NOCc1ccc(F)cc1)c1ccccc1NCc1ccc2occc2c1
7.30

Retrieve pIC50 measured for O=C(NOCc1ccccc1Br)c1cccnc1NCc1ccncc1 and print it.
7.20

Read the entry N#Cc1ccc(CONC(=O)c2ccccc2NCc2ccnc(NC(=O)CO)c2)cc1 and write its reported pIC50.
8.20

Annotate the molecule O=C(NOCc1c(F)cccc1C(F)(F)F)c1ccccc1NCc1ccncc1 with its measured pIC50.
7.70

Give the measured pIC50 for COc1cc(CONC(=O)c2ccccc2NCc2ccncc2)cc(OC)c1OC
7.00

Please give the documented pIC50 of O=C(NOCc1ccccc1C#CCO)c1ccccc1NCc1ccncc1
7.20

Find the measured pIC50 of O=C(NOCc1ccccc1I)c1cccnc1NCc1ccncc1 and report it.
7.20

For N#Cc1ccc(CONC(=O)c2cccnc2NCc2ccncc2)c(Cl)c1 , write its pIC50.
7.30
